Data credit: paper PMC11195807

Subject of test: hCA XII (Homo sapiens)
Construct: made in house
Assay name: stopped-flow CO2 hydrase assay, hCA XII
Format: biochemical
Condition set: hCA XII over hCA II
Readout type: Selectivity index (SI) II/XII

I. COc1ccc2cc3[n+](cc2c1OCCn1cc(-c2ccc(S(N)(=O)=O)cc2)nn1)CCc1cc2c(cc1-3)OCO2
II. COc1ccc2cc3[n+](cc2c1OCc1cn(-c2ccc(S(N)(=O)=O)cc2)nn1)CCc1cc2c(cc1-3)OCO2
III. COc1ccc2cc3[n+](cc2c1OCCCCn1cc(-c2ccc(S(N)(=O)=O)cc2)nn1)CCc1cc2c(cc1-3)OCO2
IV. COc1ccc2cc3[n+](cc2c1OCCCS(N)(=O)=O)CCc1cc2c(cc1-3)OCO2
[ask] Sort the entries above by Selectivity index (SI) II/XII, smallest first. Arrange the labels as the request states and list them.
[reply] IV, III, II, I

* * *

Subject of test: hCA IX (Homo sapiens)
Construct: made in house
Assay name: stopped-flow CO2 hydrase assay, hCA IX
Type: biochemical
Condition set: coumarins; inhibitor-enzyme incubation 6 h; mean ± SEM of three assays
Readout type: Ki (nM)

Past entries and their recorded results:
Chemical structure: COc1ccc2cc3[n+](cc2c1OCCCn1cc(CCOc2ccc4ccc(=O)oc4c2)nn1)CCc1cc2c(cc1-3)OCO2
Result unit: nM
Ki: 34.5

Chemical structure: COc1ccc2cc3[n+](cc2c1OCc1cn(-c2ccc4c(C)cc(=O)oc4c2)nn1)CCc1cc2c(cc1-3)OCO2
Result unit: nM
Ki: 51.5

P. COc1ccc2cc3[n+](cc2c1OCCCCCn1cc(COc2ccc4ccc(=O)oc4c2)nn1)CCc1cc2c(cc1-3)OCO2
Q. COc1ccc2cc3[n+](cc2c1OCc1cn(CCCCCOc2ccc4ccc(=O)oc4c2)nn1)CCc1cc2c(cc1-3)OCO2
R. COc1ccc2cc3[n+](cc2c1OCCCCn1cc(COc2ccc4ccc(=O)oc4c2)nn1)CCc1cc2c(cc1-3)OCO2
S. COc1ccc2cc3[n+](cc2c1OCCCCn1cc(CCOc2ccc4ccc(=O)oc4c2)nn1)CCc1cc2c(cc1-3)OCO2
[ask] Arrange the 4 entries by Ki so the values rise. Arrange the labels as the request states and list them.
[reply] Q, R, S, P

* * *

Tested on: Hairpin
Assay name: CD melting experiments, hairpin DNA duplex
Condition set: 2 molar equiv compound, T1/2 of DNA alone 66.0 °C
Measured ΔT1/2 Hairpin accompanies every entry in the list below.

Past entries and their recorded results:
Compound: COc1ccc2cc3[n+](cc2c1OCCCn1cc(COc2ccc(S(N)(=O)=O)cc2)nn1)CCc1cc2c(cc1-3)OCO2
Assay result: -0.5 °C
--
Compound: COc1ccc2cc3[n+](cc2c1OCCCCCn1cc(COc2ccc4ccc(=O)oc4c2)nn1)CCc1cc2c(cc1-3)OCO2
Assay result: -1.0 °C
--
Compound: COc1ccc2cc3[n+](cc2c1OCCCCCn1cc(COc2ccc(S(N)(=O)=O)cc2)nn1)CCc1cc2c(cc1-3)OCO2
Assay result: +0.2 °C
--
Compound: COc1ccc2cc3[n+](cc2c1OCCCn1cc(CCOc2ccc4ccc(=O)oc4c2)nn1)CCc1cc2c(cc1-3)OCO2
Assay result: +2.0 °C
--
Compound: COc1ccc2cc3[n+](cc2c1OCc1cn(CCCOc2ccc4ccc(=O)oc4c2)nn1)CCc1cc2c(cc1-3)OCO2
Assay result: +0.5 °C

[ask] For the compound shown here, COc1ccc2cc3[n+](cc2c1OCc1cn(CCCCCOc2ccc4ccc(=O)oc4c2)nn1)CCc1cc2c(cc1-3)OCO2 , give the reported ΔT1/2 Hairpin.
[reply] +1.0 °C

[ask] Query COc1ccc2cc3[n+](cc2c1OCCCCn1cc(COc2ccc4ccc(=O)oc4c2)nn1)CCc1cc2c(cc1-3)OCO2 next
[reply] +0.5 °C

[ask] Query COc1ccc2cc3[n+](cc2c1OCCn1cc(COc2ccc(S(N)(=O)=O)cc2)nn1)CCc1cc2c(cc1-3)OCO2 next
[reply] -0.5 °C

[ask] Query COc1ccc2cc3[n+](cc2c1OC)CCc1cc2c(cc1-3)OCO2 [Berberine, berberine, reference compound] next
[reply] +0.2 °C

[ask] Query COc1ccc2cc3[n+](cc2c1OCCCn1cc(CCCOc2ccc4ccc(=O)oc4c2)nn1)CCc1cc2c(cc1-3)OCO2 next
[reply] +0.5 °C

[ask] Query COc1ccc2cc3[n+](cc2c1OCCn1cc(-c2ccc(S(N)(=O)=O)cc2)nn1)CCc1cc2c(cc1-3)OCO2 next
[reply] -0.5 °C

[ask] Query COc1ccc2cc3[n+](cc2c1OCCCS(N)(=O)=O)CCc1cc2c(cc1-3)OCO2 next
[reply] +2.0 °C

[ask] Query COc1ccc2cc3[n+](cc2c1OCc1cn(-c2ccc(S(N)(=O)=O)cc2)nn1)CCc1cc2c(cc1-3)OCO2 next
[reply] +2.5 °C

[ask] Query COc1ccc2cc3[n+](cc2c1OCCCCn1cc(COc2ccc(S(N)(=O)=O)cc2)nn1)CCc1cc2c(cc1-3)OCO2 next
[reply] +0.2 °C

[ask] Query COc1ccc2cc3[n+](cc2c1OCc1cn(-c2ccc4c(C)cc(=O)oc4c2)nn1)CCc1cc2c(cc1-3)OCO2 next
[reply] +2.5 °C

* * *

Subject of test: hCA XII (Homo sapiens, UniProt O43570)
Construct: made in house
Sequence (O43570 25-354): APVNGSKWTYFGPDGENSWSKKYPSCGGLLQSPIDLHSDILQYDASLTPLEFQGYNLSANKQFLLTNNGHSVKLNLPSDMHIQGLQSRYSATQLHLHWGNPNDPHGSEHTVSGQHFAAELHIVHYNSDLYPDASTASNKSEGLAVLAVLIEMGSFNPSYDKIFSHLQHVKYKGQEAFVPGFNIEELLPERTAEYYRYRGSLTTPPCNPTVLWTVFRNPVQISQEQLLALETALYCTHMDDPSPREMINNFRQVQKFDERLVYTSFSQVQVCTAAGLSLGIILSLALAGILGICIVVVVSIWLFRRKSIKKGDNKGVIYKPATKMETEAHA
Assay name: stopped-flow CO2 hydrase assay, hCA XII
Format: biochemical
Condition set: sulphonamides; inhibitor-enzyme incubation 15 min; mean ± SEM of three assays
Source text: An Applied Photophysics stopped-flow instrument has been used for assaying the CA-catalysed CO2 hydration activity, as reported earlier. […] All hCA isoforms were recombinant proteins, being obtained in-house as reported earlier.
Readout type: Ki (nM)

Molecule: COc1ccc2cc3[n+](cc2c1OCCCn1cc(-c2ccc(S(N)(=O)=O)cc2)nn1)CCc1cc2c(cc1-3)OCO2 [Compound 28]
Ki / nM: 14

Molecule: COc1ccc2cc3[n+](cc2c1OCCCS(N)(=O)=O)CCc1cc2c(cc1-3)OCO2 [Compound 47]
Ki / nM: 35.9

Molecule: COc1ccc2cc3[n+](cc2c1OCCCCn1cc(-c2ccc(S(N)(=O)=O)cc2)nn1)CCc1cc2c(cc1-3)OCO2 [Compound 30]
Ki / nM: 25.5

a. COc1ccc2cc3[n+](cc2c1OCCCCn1cc(COc2ccc(S(N)(=O)=O)cc2)nn1)CCc1cc2c(cc1-3)OCO2 [Compound 31]
b. COc1ccc2cc3[n+](cc2c1OCc1cn(-c2cccc(S(N)(=O)=O)c2)nn1)CCc1cc2c(cc1-3)OCO2 [Compound 40]
[ask] Lower Ki: a or b ? Choose, then provide that item's label.
[reply] a
(a: 7.2 nM, b: 24.8 nM)

* * *

Subject of test: hCA II (Homo sapiens, UniProt P00918)
Construct: made in house
Assay name: stopped-flow CO2 hydrase assay, hCA II
Format: biochemical
Condition set: sulphonamides; inhibitor-enzyme incubation 15 min; mean ± SEM of three assays
From the text: . The structure-activity relationship is discussed separately for the two compound subsets. Another code pattern is included for the MTDLs in Table 1, which indicates the derivative CAI type (sulphonamide, S or coumarin, C) and the number of atoms in the spacers connecting either berberine and the triazole (carbon atoms) or the triazole and the benzenesulfonamide/coumarin scaffolds (carbon or oxygen atoms). […]
pKi: −log10 of the molar value.
Readout type: pKi

A. COc1ccc2cc3[n+](cc2c1OCCCCn1cc(-c2ccc(S(N)(=O)=O)cc2)nn1)CCc1cc2c(cc1-3)OCO2 [Compound 30]
B. COc1ccc2cc3[n+](cc2c1OCc1cn(-c2ccc(S(N)(=O)=O)cc2)nn1)CCc1cc2c(cc1-3)OCO2 [Compound 41]
C. COc1ccc2cc3[n+](cc2c1OCCn1cc(COc2ccc(S(N)(=O)=O)cc2)nn1)CCc1cc2c(cc1-3)OCO2 [Compound 27]
[ask] Sort the entries above by pKi, smallest first. Arrange the labels as the request states and list them.
[reply] A, B, C
(A: 7.26, B: 7.64, C: 8.22)

* * *

Subject of test: hCA II (Homo sapiens, UniProt P00918)
Construct: made in house
Assay name: stopped-flow CO2 hydrase assay, hCA II
Type: biochemical
Condition set: sulphonamides; inhibitor-enzyme incubation 15 min; mean ± SEM of three assays
Text: . The structure-activity relationship is discussed separately for the two compound subsets. Another code pattern is included for the MTDLs in Table 1, which indicates the derivative CAI type (sulphonamide, S or coumarin, C) and the number of atoms in the spacers connecting either berberine and the triazole (carbon atoms) or the triazole and the benzenesulfonamide/coumarin scaffolds (carbon or oxygen atoms). […]
pKi: −log10 of the molar value.
Readout type: pKi

Past entries and their recorded results:
Chemical structure: COc1ccc2cc3[n+](cc2c1OCCCCn1cc(COc2ccc(S(N)(=O)=O)cc2)nn1)CCc1cc2c(cc1-3)OCO2
Subject of test: hCA II (Homo sapiens, UniProt P00918)
pKi: 7.15
//
Chemical structure: COc1ccc2cc3[n+](cc2c1OCc1cn(-c2cccc(S(N)(=O)=O)c2)nn1)CCc1cc2c(cc1-3)OCO2
Subject of test: hCA II (Homo sapiens, UniProt P00918)
pKi: 7.05
//
Chemical structure: COc1ccc2cc3[n+](cc2c1OCCCn1cc(COc2ccc(S(N)(=O)=O)cc2)nn1)CCc1cc2c(cc1-3)OCO2
Subject of test: hCA II (Homo sapiens, UniProt P00918)
pKi: 7.21

I. COc1ccc2cc3[n+](cc2c1OCCn1cc(-c2ccc(S(N)(=O)=O)cc2)nn1)CCc1cc2c(cc1-3)OCO2
II. COc1ccc2cc3[n+](cc2c1OCCCCCn1cc(-c2ccc(S(N)(=O)=O)cc2)nn1)CCc1cc2c(cc1-3)OCO2
[ask] Lower pKi: I or II ? Choose, then provide that item's label.
[reply] I

1. COc1ccc2cc3[n+](cc2c1OCCCn1cc(-c2ccc(S(N)(=O)=O)cc2)nn1)CCc1cc2c(cc1-3)OCO2
2. COc1ccc2cc3[n+](cc2c1OCCCCCn1cc(COc2ccc(S(N)(=O)=O)cc2)nn1)CCc1cc2c(cc1-3)OCO2
[ask] Which of the two gives a bigger number for pKi: 1 or 2 ? Choose, then provide that item's label.
[reply] 2
